Each recorded value in this set is attributed to patent US12655116B2.

# Test system: VIOTR
# experiment-summary: Post-emergence herbicidal action against VIOTR
# Assay type: in vivo, Viola tricolor
# conditions: Viola tricolor, 504 h, 20 g/ha
observable: pest or weed control at 20 g/ha

>>> print(df.to_string())
                  compound_structure_string                       observable   val
0  Cn1nnnc1NC(=O)c1ccc(S(C)(=O)=O)c(C(=O)NC2CC2)c1Cl  pest or weed control at 20 g/ha  100%
1  CCCNC(=O)c1c(C(F)F)ccc(C(=O)Nc2nnnn2C)c1C  pest or weed control at 20 g/ha  100%
2  Cn1nnnc1NC(=O)c1ccc(C(F)(F)F)c(C(=O)NC2CC2)c1Cl  pest or weed control at 20 g/ha  100%
3  Cn1nnnc1NC(=O)c1ccc(C(F)F)c(C(=O)NC2CC2)c1C1CC1  pest or weed control at 20 g/ha   90%

Prompt line: For the compound CCn1nnnc1NC(=O)c1ccc(Br)c(C(=O)NC2CC2)c1Cl , give its measured pest or weed control at 20 g/ha value.
Response line: 100%

Prompt line: Return pest or weed control at 20 g/ha for the following compound: Cn1nnnc1NC(=O)c1ccc(Cl)c(C(=O)NC2CC2)c1Cl
Response line: 90%

Prompt line: Tell us which pest or weed control at 20 g/ha value is on record for CCNC(=O)c1c(Br)ccc(C(=O)Nc2nnnn2C)c1Cl
Response line: 80%

---

# Pre-emergence action against PHBPU in % per entry
# System: PHBPU
# experiment-summary: Pre-emergence herbicidal action against PHBPU
# Type: in vivo, Pharbitis purpurea
# conditions: dosage 80 g/ha
Report only the number, with the unit % understood.

Recorded Pre-emergence action against PHBPU in %, per entry:
In [3]: df
Out[3]:
                  compound_structure_string  experimental_system  val
0  CCn1nnnc1NC(=O)c1ccc(C(F)F)c(C(=O)NCC(F)F)c1SC                PHBPU   90
1  CCn1nnnc1NC(=O)c1ccc(C(F)(F)F)c(C(=O)NC)c1OC                PHBPU   80
2  CSc1c(C(=O)Nc2nnnn2C)ccc(C(F)F)c1C(=O)NCC(F)F                PHBPU   90

Attention now shifts to the item below.
Prompt line: Determine from records and report Pre-emergence action against PHBPU in % for CCNC(=O)c1c(C(F)F)ccc(C(=O)Nc2nnnn2CC)c1C1CC1
Response line: 90

---

# Tested on: MATIN
# experiment-summary: Post-emergence herbicidal action against MATIN
# Format: in vivo, Matricaria inodora
# conditions: Tripleurospermum inodorum, 504 h, dosage 5 g/ha
observable: pest or weed control at 5 g/ha
Note: a bare number is incomplete; add the unit.

                                   compound  val
0  CCn1nnnc1NC(=O)c1ccc(C(F)(F)F)c(C(=O)NC)c1Br [Example 2-207]  80%

Prompt line: Complete the entry with pest or weed control at 5 g/ha for CCNC(=O)c1c(C(F)(F)F)ccc(C(=O)Nc2nnnn2C)c1C [Example 1-26]
Response line: 90%

Prompt line: Supply recorded pest or weed control at 5 g/ha for CCCn1nnnc1NC(=O)c1ccc(C(F)(F)F)c(C(=O)NC)c1Cl [Example 3-129] here.
Response line: 100%

Prompt line: Look up and state reported pest or weed control at 5 g/ha for CCc1c(C(=O)Nc2nnnn2C)ccc(C(F)F)c1C(=O)NC [Example 1-277]
Response line: 90%

Prompt line: Supply recorded pest or weed control at 5 g/ha for CNC(=O)c1c(C(F)F)ccc(C(=O)Nc2nnnn2C)c1C1CC1 [Example 1-304] here.
Response line: 90%

Prompt line: Identify measured pest or weed control at 5 g/ha corresponding to CCc1c(C(=O)Nc2nnnn2C)ccc(C(F)(F)F)c1C(=O)NC [Example 1-271]
Response line: 90%

Prompt line: Answer with reported pest or weed control at 5 g/ha of Cn1nnnc1NC(=O)c1ccc(C(F)(F)F)c(C(=O)NC2CC2)c1Cl [Example 1-131]
Response line: 90%

Prompt line: Hello, please tell me recorded pest or weed control at 5 g/ha for this one: COc1c(C(=O)Nc2nnnn2C)ccc(C(F)(F)F)c1C(=O)NC1CC1 [Example 1-58]
Response line: 80%

Prompt line: Answer with the recorded pest or weed control at 5 g/ha of CCNC(=O)c1c(C(F)(F)F)ccc(C(=O)Nc2nnnn2CC)c1C1CC1 [Example 2-287] only.
Response line: 90%
